protein stability index reference
B1: GLT8D2 (parent)
chain: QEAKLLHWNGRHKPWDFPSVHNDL

# Variants of: B1
# Assay: protein stability index of a GFP-peptide fusion (GPS, HEK-293T) (PSI 1-6); higher = more stable;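 further: lentivirally expressed fusions sorted by FACS into six bins by GFP to DsRed ratio, PSI derived from sequencing read proportions per bin multiplied by bin number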
# Condition Summary: c terminus: a fixed tail appended
Write the number on its own, no unit after it.

Here's what some known entries look like.
[[record]]
input_sequence = "QEAKLLHWNGRHKLWDFPSVHNDL [P14L]"
reported_endpoint = "protein stability index"
recorded_value = 2.33

[[record]]
input_sequence = "QEAKLLHWNGRHKPWDFPPVHNDL [S19P]"
reported_endpoint = "protein stability index"
recorded_value = 2.7


Continue with the next variant.
Query :: Indicate the recorded protein stability index value for this variant: QEAKLLHWDGRHKPWDFPSVHNDL [N9D]
Result :: 2.87

Data provenance: the supplement of paper PMC10567573
